assay: binders of probe aFGF10 on microarray, primary screen, stem cell growth factor project, biochemical, small-molecule microarray, fluorescence 635/667 (AID 1071); settings: higher = more signal;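 note: score merges 667 nm spot intensity and signal to noise from triplicate slides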
endpoint: composite z-score
Lab note: record the figure alone, no unit after it.

Name the reported composite z-score value associated with the molecule "CC(CCN1CCc2nc(-c3ccccc3)c(-c3ccccc3)cc2C1)=NO[C@@H](C)c1cn([C@H](CO)Cc2ccccc2)nn1"
-0.0983

Name the reported composite z-score value associated with the molecule "CO[C@@H]1COC(=O)CC=C[C@@H](C)COC(=O)[C@H](COCc2ccccc2)NC(=O)CC=C[C@H]1C"
-0.903

Name the reported composite z-score value associated with the molecule "O=C(NN=C1C[C@@H](O)[C@@H](O)[C@@H]2[C@@H]3C(=O)N(c4ccc(F)cc4F)C(=O)[C@@H]3CC[C@@H]12)OCc1ccccc1"
0.215

Name the reported composite z-score value associated with the molecule "CO[C@@H]1COC(=O)CCC[C@@H](C)[C@H](OC)COC(=O)[C@H](Cc2ccccc2)NC(=O)CC=C[C@H]1C"
-0.904

Name the reported composite z-score value associated with the molecule "CCCCC(=C=CC[C@H](O)c1ccccc1OCCO)C[C@H](O)COCc1ccccc1"
-0.249

Name the reported composite z-score value associated with the molecule "CCOC(=O)CCN1C(=O)[C@H]2[C@H]3[C@H](O)[C@H](O)CC(=NOC[C@@H](O)COCc4ccco4)[C@H]3CC[C@H]2C1=O"
0.483

Name the reported composite z-score value associated with the molecule "COCCOC(=O)N1C(=O)[C@@]2(c3cc(C#CC4(O)CCCCCC4)ccc31)[C@H](C(=O)N1CCN(c3ncccn3)CC1)[C@H]1C(=O)O[C@H](c3ccccc3)[C@H](c3ccccc3)N1[C@@H]2c1ccc(OCCO)cc1"
0.727

Name the reported composite z-score value associated with the molecule "COc1ccc(O[C@H]2C=C[C@@H](c3ccccc3)O[C@@H]2COC(=O)CCC(C)=NO[C@@H](C)c2cc(-c3c(C)cc(C)cc3C)no2)cc1"
-0.522

Name the reported composite z-score value associated with the molecule "CC(=O)OC[C@H]1O[C@H](CC=NOC[C@@H](C)[C@H](OCc2ccccc2)C(C)C)C=C[C@@H]1OC(C)=O"
0.0055

Name the reported composite z-score value associated with the molecule "COCCOC(=O)N1C(=O)[C@@]2(c3ccccc31)[C@H](C(N)=O)[C@H]1C(=O)O[C@H](c3ccccc3)[C@H](c3ccccc3)N1[C@@H]2c1ccccc1OCCO"
0.937

Name the reported composite z-score value associated with the molecule "CC(=O)OC[C@H]1O[C@H](CCON=C[C@@H](C)[C@H](OCc2ccccc2)C(C)C)C=C[C@@H]1OC(C)=O"
0.114

Name the reported composite z-score value associated with the molecule "CC(C)=C1C(=O)C(c2ccccc2)=C2CN3C(=O)N(CCc4ccccc4)C(=O)[C@]3(Cc3ccc(F)cc3)[C@H]21"
-0.247

Name the reported composite z-score value associated with the molecule "CCc1cccc(NC(=O)O[C@H]2[C@H](OC(=O)Nc3ccc4c(c3)OCO4)[C@@H](OC(=O)Nc3ccc4c(c3)OCO4)[C@@H](OC)O[C@@H]2CO)c1"
1

Name the reported composite z-score value associated with the molecule CCN(CC)c1ccc(N2CC=CC34O[C@@H]5/C=C\CCC(C)OC(=O)C5[C@H]3C(=O)N(CCCO)[C@@H]4C2=O)cc1 (some centres not stated)
0.408

Name the reported composite z-score value associated with the molecule "CC(C)CON=C1[C@H]2CCn3c(=O)n(-c4ccccc4)c(=O)n3[C@H]2[C@H](O)[C@@H]2O[C@H]12"
0.325

Name the reported composite z-score value associated with the molecule "O=C1[C@H]2[C@H]3[C@H](O)[C@H](O)CC(=NOCc4ccccc4)[C@H]3CC[C@H]2C(=O)N1C[C@@H]1CCCO1"
0.717

Name the reported composite z-score value associated with the molecule O=C1NC(=O)C2C1C=CC(C(O)Cc1ccccc1)N2Nc1ccccn1 (configuration not stated)
0.477

Name the reported composite z-score value associated with the molecule C=CCC(OC(C)=O)[C@@H]1[C@@H](N(Cc2cc3ccccc3o2)C(=O)Cc2ccc(F)cc2)c2cc(OCCCO)ccc2N1C(=O)Cc1ccc(OC)cc1 (some centres not stated)
0.351

Name the reported composite z-score value associated with the molecule "CCCNC(=O)OC[C@H]1O[C@H](CCON=C2[C@H]3CCn4c(=O)n(-c5ccccc5)c(=O)n4[C@H]3[C@H](O)[C@@H]3O[C@H]23)C=C[C@@H]1Oc1ccc(OC)cc1"
0.406

Name the reported composite z-score value associated with the molecule CCOC(=O)[C@H](Cc1ccccc1)NC(=O)CCC1CC(OC(=O)NCc2ccc3c(c2)OCO3)CC2(CCCC(COC(=O)NCC(c3ccccc3)c3ccccc3)O2)O1 (some centres not stated)
0.211

Name the reported composite z-score value associated with the molecule "O=C1[C@H]2[C@H]3[C@H](O)[C@H](O)CC(=NOC[C@@H](O)COCc4ccco4)[C@H]3CC[C@H]2C(=O)N1Cc1ccc2c(c1)OCO2"
-0.143

Name the reported composite z-score value associated with the molecule "COc1ccc([Si](C)(C)[C@@H]2[C@@H](CCO)O[C@]3(C(=O)N(Cc4ccc(NC(C)=O)cc4)c4ccccc43)[C@H]2C)cc1"
1.18

Name the reported composite z-score value associated with the molecule "CO[C@H]1O[C@H](CO)[C@@H](OC(=O)Nc2ccc(C#N)cc2)[C@H](OC(=O)c2cc3ccccc3[nH]2)[C@H]1OC(=O)c1cc2ccccc2[nH]1"
1.16

Name the reported composite z-score value associated with the molecule "COc1ccc(O[C@H]2C=C[C@@H](c3ccccc3)O[C@@H]2COC(=O)CCC(C)=NO[C@H](C)c2cn([C@@H]3COC[C@H]3O)nn2)cc1"
0.323

Name the reported composite z-score value associated with the molecule CC1CC/C=C\[C@H]2OC34C=CCN(C(C)C)C(=O)[C@H]3N(CCCO)C(=O)[C@@H]4C2C(=O)O1 (some centres not stated)
0.245

Name the reported composite z-score value associated with the molecule "COCCOC(=O)N1C(=O)[C@@]2(c3cc(C#CCNC(N)=O)ccc31)[C@H](c1ccc(O)cc1)N1[C@H](c3ccccc3)[C@H](c3ccccc3)OC(=O)[C@H]1[C@@H]2C(=O)N1CCCCCCC1"
0.646

Name the reported composite z-score value associated with the molecule "C=COC[C@H]1CN2[C@@H](CC[C@@H](C)[C@@H]2c2ccc(Br)cc2)C(=O)O1"
0.581
